Reported pIC50 against DGKα (Homo sapiens), gathered from multiple publications, appears below.
pIC50: −log10 of the molar value.

# compound, assay system, cmp, pIC50
measured = [
    ("CC(C#N)c1nnc(-c2ccc3c(c2)N(Cc2ccc(-c4noc(C(F)(F)F)n4)cc2)C(=O)[C@@H](N)CS3(=O)=O)o1 (stereo partly drawn)", "DGKα (Homo sapiens)", "=", 5.00),
    ("CC[C@H]1CN(C(C)c2ccc(F)cc2)[C@H](CC)CN1c1cc(=O)n(C)c2cn(CC#N)nc12 (stereo partly drawn)", "DGKα (Homo sapiens)", "=", 8.00),
    ("CCn1c(CC#N)nc2c(N3C[C@@H](C)N(C(C)c4ccc5occ(C)c(=O)c5c4)C[C@@H]3C)nc(=O)n(C)c21 (stereo partly drawn)", "DGKα (Homo sapiens)", "<", 3.82),
    ("N[C@H]1CS(=O)(=O)c2ccc(-c3nnc(N4CCC(F)(F)CC4)o3)cc2N(Cc2ccc(-c3ccc(C(F)(F)F)cn3)cc2)C1=O", "DGKα (Homo sapiens)", "=", 5.29),
    ("N#CC1(c2nc(-c3cc4c(cc3F)S(=O)(=O)C[C@H](N)C(=O)N4Cc3ccc(-c4ccc(C(F)(F)F)cn4)cc3)no2)CC1", "DGKα (Homo sapiens)", "=", 5.49),
    ("CC(C)(C#N)c1nnc(-c2ccc3c(c2)N(Cc2ccc(-c4ncc(C(F)(F)F)o4)cc2)C(=O)[C@@H](N)CS3(=O)=O)o1", "DGKα (Homo sapiens)", "=", 6.16),
]

* * *

Reported IC50 against DGKα (Homo sapiens, UniProt P23743), gathered from multiple publications, appears below.

# compound, IC50 (µM)
data = [
    ("Cc1cnc2ccc(C(C)N3C[C@H](C)N(c4cc(=O)n(C)n5cc(CC#N)nc45)C[C@H]3C)cc2n1 (single isomer, unassigned)", 11.6),
    ("CC[C@H]1CN(C(C)c2ccc3ccccc3c2)[C@H](CC)CN1c1cc(=O)n(C)c2cn(CC#N)nc12 (stereo partly drawn)", 0.79),
    ("CC(c1ccc(F)cc1OC(F)F)N1C[C@H](C)N(c2nc(=O)n(C)c3c2nc(CC#N)n3C)C[C@H]1C (stereo partly drawn)", 36.9),
]

* * *

Reported IC50 against UniProtKB P23743, gathered from multiple publications, appears below.

# molecule, IC50
records = [
    ("CC[C@H]1CN(C(C)c2ccncc2OC)[C@H](CC)CN1c1cc(=O)n(C)c2cn(CC#N)nc12 (some centres unmarked)", "> 10 µM"),
    ("C[C@@](N)(c1nnc(-c2ccc3c(c2)N(Cc2ccc(-c4ccc(OC(F)(F)F)cn4)cc2)C(=O)[C@@H](N)CS3(=O)=O)o1)C(F)(F)F", "2.05 µM"),
    ("CC(c1ccc2nccnc2c1)N1CCN(c2cc(=O)n(C)c3cn(CC#N)nc23)CC1CO (centres unmarked)", "> 10 µM"),
    ("CC(C)(C#N)c1nnc(-c2ccc3c(c2)N(Cc2ccc(-n4cc(OC(F)(F)F)cn4)cc2)C(=O)[C@@H](N)CS3(=O)=O)o1", "0.657 µM"),
    ("CC(c1cc(F)c2c(c1)OC(C)(C)CO2)N1C[C@H](C)N(c2nc(=O)n(C)c3c2nc(CC#N)n3C)C[C@H]1C (mixture of isomers)", "43.8 µM"),
]
